Please provide measured kdec for the entries that follow.
- assay-text: Photophysical characterization (absorption, fluorescence, phosphorescence, lifetime)
- Format: physicochemical
Your answer should be a plain number; it is taken to be in s⁻¹.

I would be grateful if you could share the reported kdec for O=C(O)c1c(Cl)c(Cl)c(Cl)c(Cl)c1-c1c2cc(Cl)c(=O)c(Cl)c-2oc2c(Cl)c(O)c(Cl)cc12 .
2.31e+08

Given the compound O=C(O)c1c(Cl)c(Cl)c(Cl)c(Cl)c1-c1c2cc(I)c(=O)c(I)c-2oc2c(I)c(O)c(I)cc12 , what is its reported kdec?
1e+11

Looking for the measured kdec of O=C(O)c1c(Cl)c(Cl)c(Cl)c(Cl)c1-c1c2ccc(=O)cc-2oc2cc(O)ccc12 , can you help?
2.05e+08

Given the compound O=C(O)c1ccccc1-c1c2cc(Cl)c(=O)c(Cl)c-2oc2c(Cl)c(O)c(Cl)cc12 , what is its reported kdec?
2.44e+08

Please look up its kdec: O=C(O)c1ccccc1-c1c2ccc(=O)c(Br)c-2oc2c(Br)c(O)ccc12
5.03e+08

Bench note: what kdec did O=C(O)c1ccccc1-c1c2ccc(=O)c(I)c-2oc2c(I)c(O)ccc12 show?
1e+11

So what does the record say about kdec for O=C(O)c1c(Cl)c(Cl)c(Cl)c(Cl)c1-c1c2cc(Br)c(=O)c(Br)c-2oc2c(Br)c(O)c(Br)cc12 ?
8e+08

// query kdec value for entry O=C(O)c1ccccc1-c1c2cc(I)c(=O)c(I)c-2oc2c(I)c(O)c(I)cc12
1e+11

====

- assay-text: Relative singlet oxygen quantum yield (1O2 phosphorescence, Rose Bengal standard)
- Format: physicochemical
- Set-up: key: relative to Rose Bengal standard (ΦΔ = 0.75)
- condition-details: mixed solvent of D2O and CH3CN (1:15) (Supplementary Table 4)
Provide the recorded Singlet oxygen yield (ΦΔ) for the entries that follow.
Lab note: record just the number, no unit beside it.

I have this compound here, O=C(O)c1c(Cl)c(Cl)c(Cl)c(Cl)c1-c1c2cc(Cl)c(=O)c(Cl)c-2oc2c(Cl)c(O)c(Cl)cc12 , and I need its recorded Singlet oxygen yield (ΦΔ).
0.11

Which Singlet oxygen yield (ΦΔ) value belongs to O=C(O)c1ccccc1-c1c2ccc(=O)c(Br)c-2oc2c(Br)c(O)ccc12 ?
0.26

# Singlet oxygen yield (ΦΔ) lookup, item O=C(O)c1ccccc1-c1c2cc(Cl)c(=O)c(Cl)c-2oc2c(Cl)c(O)c(Cl)cc12
0.06

Request the reported Singlet oxygen yield (ΦΔ) associated with O=C(O)c1c(Cl)c(Cl)c(Cl)c(Cl)c1-c1c2cc(I)c(=O)c(I)c-2oc2c(I)c(O)c(I)cc12
0.75

====

- assay-text: Relative singlet oxygen quantum yield (1O2 phosphorescence, Rose Bengal standard)
- Type: physicochemical
- Design: key: relative to Rose Bengal standard (ΦΔ = 0.75)
- condition-details: pH = 10 media; relative, RB as the standard
parameter-measured: singlet oxygen quantum yield (ΦΔ)
Just the number, please, no unit attached.

Field request: singlet oxygen quantum yield (ΦΔ) | item: O=C(O)c1c(Cl)c(Cl)c(Cl)c(Cl)c1-c1c2cc(Cl)c(=O)c(Cl)c-2oc2c(Cl)c(O)c(Cl)cc12 [OCF, Octachloro-fluorescein]
0.11

Recorded singlet oxygen quantum yield (ΦΔ) of O=C(O)c1c(Cl)c(Cl)c(Cl)c(Cl)c1-c1c2cc(I)c(=O)c(I)c-2oc2c(I)c(O)c(I)cc12 [RB, Tetraiodo-tetrachloro-fluorescein] , please.
0.75

What value of singlet oxygen quantum yield (ΦΔ) has been recorded for this entry: O=C(O)c1ccccc1-c1c2cc(Cl)c(=O)c(Cl)c-2oc2c(Cl)c(O)c(Cl)cc12 [TCF-1, Tetrachloro-fluorescein-1]
0.06

====

- assay-text: Photophysical characterization (absorption, fluorescence, phosphorescence, lifetime)
- Format: physicochemical
Hi there, I'd appreciate the recorded krad for every entry that follows.
Response body: numeric value in s⁻¹, unit text excluded.

Which krad is reported for this compound? O=C(O)c1c(Cl)c(Cl)c(Cl)c(Cl)c1-c1c2cc(Cl)c(=O)c(Cl)c-2oc2c(Cl)c(O)c(Cl)cc12 [OCF, Octachloro-fluorescein]
1.38e+08

Consider the compound shown here: O=C(O)c1c(Cl)c(Cl)c(Cl)c(Cl)c1-c1c2cc(I)c(=O)c(I)c-2oc2c(I)c(O)c(I)cc12 [RB, Tetraiodo-tetrachloro-fluorescein] What is its recorded krad?
3e+08

Looking for the measured krad of O=C(O)c1ccccc1-c1c2ccc(=O)c(I)c-2oc2c(I)c(O)ccc12 [DIF, Diiodo-fluorescein] , can you help?
1e+08

Need krad, item O=C(O)c1ccccc1-c1c2cc(I)c(=O)c(I)c-2oc2c(I)c(O)c(I)cc12 [TIF, 2′,4′,5′,7′-tetraiodofluorescein]
3e+08

Name the reported krad value associated with the compound O=C(O)c1ccccc1-c1c2cc(Cl)c(=O)c(Cl)c-2oc2c(Cl)c(O)c(Cl)cc12 [TCF-1, Tetrachloro-fluorescein-1]
1.66e+08

Recorded krad of O=C(O)c1ccccc1-c1c2ccc(=O)c(Br)c-2oc2c(Br)c(O)ccc12 [DBF, Dibromo-fluorescein] , please.
1.52e+08

I would be grateful if you could share the reported krad for O=C(O)c1c(Cl)c(Cl)c(Cl)c(Cl)c1-c1c2ccc(=O)cc-2oc2cc(O)ccc12 [TCF-2, Tetrachloro-fluorescein-2] .
1.75e+08

Request the reported krad associated with O=C(O)c1c(Cl)c(Cl)c(Cl)c(Cl)c1-c1c2cc(Br)c(=O)c(Br)c-2oc2c(Br)c(O)c(Br)cc12 [PB, Tetrabromo-tetrachloro-fluorescein]
1.36e+08

====

- assay-text: Photophysical characterization (absorption, fluorescence, phosphorescence, lifetime)
- Format: physicochemical
- condition-details: 2% DMSO
Assign λem to each entry below.
Report the value in nm with no unit label.

Can you look up the measured λem of O=C(O)c1c(Cl)c(Cl)c(Cl)c(Cl)c1-c1c2cc(I)c(=O)c(I)c-2oc2c(I)c(O)c(I)cc12 for me?
570

May I ask what λem has been recorded for O=C(O)c1c(Cl)c(Cl)c(Cl)c(Cl)c1-c1c2cc(Cl)c(=O)c(Cl)c-2oc2c(Cl)c(O)c(Cl)cc12 ?
556

If you can, please state the reported λem value of O=C(O)c1ccccc1-c1c2cc(Cl)c(=O)c(Cl)c-2oc2c(Cl)c(O)c(Cl)cc12 .
536

Dear colleague, I am looking for the recorded λem of the following molecule: O=C(O)c1ccccc1-c1c2cc(I)c(=O)c(I)c-2oc2c(I)c(O)c(I)cc12
551
